# TARGET OR TEST SYSTEM: T1, recombinant soluble human OX40 ECD (residues 1-216) (human, UniProt P43489 29-216)
# T1 construct: Purchased from Creative Biomart and further purified by gel filtration; also called recombinant extracellular domain of human OX40
# T1 sequence: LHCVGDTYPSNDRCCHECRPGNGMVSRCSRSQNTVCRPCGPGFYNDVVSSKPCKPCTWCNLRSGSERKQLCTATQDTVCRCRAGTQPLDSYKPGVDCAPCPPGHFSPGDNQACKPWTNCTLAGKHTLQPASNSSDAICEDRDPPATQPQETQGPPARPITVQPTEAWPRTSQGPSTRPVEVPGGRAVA
# METHOD SUMMARY: SPR (Biacore T200, 25 °C), antibody captured by anti-Fc, OX40 ECD as analyte
QUANTITY KIND: pKd
Remember, pKd is on a log scale: it is -log10 of the molar concentration.

Hu3739 (antibody, V domains shown, Humanized antibody; also called Hu3739 VH.1b / Hu3739 VL.1b) VH: EVQLVQSGAEVKKPGSSVKVSCKASGFNIKDTYMHWVRQAPGQGLEWIGRIDPANGNTKYDPKFQGRATITADTSTNTAYMELSSLRSEDTAVYYCARGGPAWFVYWGQGTLVTVSS VL: DIQMTQSPSSLSASVGDRVTITCRASQDISNYLNWYQQKPGKAPKLLIYYTSRLRSGLPSRFSGSGSGTDYTLTISSLQPEDFATYYCQQGNTLPWTFGGGTKVEIKR ... 6.44
Hu3741 (antibody, V domains shown, Humanized antibody; also called Hu3741 VH.2b / Hu3741 VL.1c) VH: EVQLVESGGGLVQPGGSLRLSCAVSGFSLTSYGVHWVRQAPGKGLEWLGVIWSGGSTDYNAAFISRLTISKDNSKSTVYLQMNSLRAEDTAVYYCAREEFDYWGQGTTVTVSS VL: DIQMTQSPSSLSASVGDRVTITCRASQDISNYLNWFQQKPGKAPKLLIYYTSRLHSGVPSRFSGSGSGTDYTLTISSLQPEDFATYYCQQGYTLPPTFGGGTKVEIKR ... 5.52
18D8 (antibody, human IgG1, V domains shown, also called literature anti-OX40 antibody 18D8) VH: EVQLVESGGGLVQPGRLSRLSCAASGFTFDDYAMHWVRQAPGKGLEWVSGISWNSGSIGYADSVKGRFTISRENAKNSLYLQMNSLRAEDTALYYCAKDQSTADYYFYYGMDVWGQGTTVTVSS VL: EIVVTQSPATLSLSPGERATLSCRASQSVSSYLAWYQQKPGQAPRLLIYDASNRATGIPARFSGSGSGTDFTLTISSLEPEDFAVYYCQQRSNWPTFGQGTKVEIK ... 8.04

Now consider a different binder.
Recorded pKd for Hu3738 (antibody, V domains shown, Humanized antibody; also called exemplary anti-OX40 antibody Hu3738; Hu3738 VH.1b / Hu3738 VL.1) VH: EVQLVESGGGLVQPGGSLRLSCAASGFTFSRYGMSWVRQAPGKGLELVATINSNGGRTYYPDSVKGRFTISRDNAKNSLYLQMNSLRAEDTAVYYCAREGITTAYAMDYWGQGTTVTVSS VL: DIVMTQSPDSLAVSLGERATINCKASQSVDYDGDSYMHWYQQKPGQPPKLLIYAASILESGVPDRFSGSGSGTDFTLTISSLQAEDVAVYYCQQSNEDPRTFGGGTKVEIKR , please?
7.38

// data source = patent US20210017289A1
